Listed here are compounds together with their documented GI50.
system: OVCAR-3; assay: NCI tumour cell line growth inhibition, 48 h
The source made the active and inactive calls. Cut-off read from the data, not from the text of the source: active = GI50 up to about 1.1 µM and inactive = higher.

compound	reading
Cc1ccc(C(=O)Nc2ccc(CP(=O)(O)O)cc2CP(=O)(O)O)cc1NC(=O)c1cccc(N)c1	> 100 µM (inactive)
CSc1nc(Br)nc2c1ncn2C1CC(Oc2ccc(C)cc2)C(COc2ccc(C)cc2)O1 (stereo not drawn)	> 100 µM (inactive)

Attention now turns to another entry.
### Prompt Give the measured GI50 of CCCCCCCCCCCCCCC1OC(=O)c2ccccc21 (stereo not drawn) .
### Response 79.8 µM (inactive)

* * *

test system: MOLT-4; experiment: NCI tumour cell line growth inhibition, 48 h
Activity calls are given as the source filed them. Cut-off read from the data, not from the text of the source: active = GI50 up to about 1.1 µM and inactive = higher.
Output constraint: value belongs to true (active), false (inactive)

compound	tested on	class name
CCC(C)c1cnc(CC(C)C)c(=O)[nH]1 (centres undefined)	MOLT-4	false
NC(=O)Nc1c(Cl)cc(S(N)(=O)=O)cc1Cl	MOLT-4	false
CC1=NN(C(=O)c2ccccc2O)C(=O)/C1=C/c1c(O)ccc2ccccc12	MOLT-4	false
CC(=O)O[C@H]1C(=O)[C@@]2(C)[C@H]([C@H](OC(=O)c3ccccc3)[C@]3(O)C[C@H](OC(=O)[C@H](OC(=O)OCCC(O)CO)[C@@H](NC(=O)c4ccccc4)c4ccccc4)C(C)=C1C3(C)C)[C@]1(OC(C)=O)CO[C@@H]1C[C@@H]2O (some centres undefined)	MOLT-4	true
COc1cccc(C=C(C#N)C#N)c1OC	MOLT-4	false

### Prompt Test call for this compound, please: `COc1ccccc1-c1cc(O)c2cc3c(cc2n1)OCO3`
### Response false

### Prompt # iterate: N#CSC1CCCCNC1=O (centres undefined)
### Response false

### Prompt # iterate: `CC(=O)Nc1ccc(/C=C(\NC(=O)c2ccccc2)c2nc3ccc4c(c3[nH]2)C(=O)c2ccccc2C4=O)cc1`
### Response false

### Prompt # iterate: COc1ccc(/C=C\c2cc(OC)c(OC)c(OC)c2)cc1OC(=O)CC(N)C(=O)O (centres undefined)
### Response true
